Values were extracted from a melting point compilation (Tetko et al.; mined from patent text by program, amines drawn as free bases though some values may be those of a salt).

Listing of entries alongside the reported melting point.

Answered examples (4):
| Compound | Result |
| --- | --- |
| COC(=O)N[C@@H]1CN2C(=O)N(c3cc(Cl)nc(Cl)c3)C(=O)[C@@]2(Cc2ccc(OC(F)(F)F)cc2)C1 | 120 °C |
| COC(=O)c1sc2c(c1N=CN(C)C)c1ccccc1c(=O)n2-c1ccccc1 | 225 to 227 °C |
| Cc1ccc2c(c1)C(O)CC21CCN(CCCC(=O)c2ccc(F)cc2)C1 (stereo unspecified) | 137 to 139 °C |
| CCCCc1nc2c(N)nc3ccccc3c2n1CCCNC(=O)NC1CCCCC1 | 200 to 201 °C |

// switching to the query compound
Name the reported melting point value associated with the compound CCCCCCC1=C(O)C(=O)CO1 51 to 52 °C

###

Listing of entries alongside the reported melting point.

| Molecule | melting point |
| --- | --- |
| Cn1c(=O)c(-c2c(Cl)cccc2Cl)cc2cnc(Nc3cccnc3)nc21 | 247 to 248 °C |
| COc1cc2c(cc1OC)CC(=O)NC=C2 | 234 to 237 °C |
| Cc1cccc(NC#N)c1N1CCOCC1 | 137 to 138 °C |
| COC(=O)[C@H](NC(=O)OC(C)(C)C)c1ccc(O)cc1 | 140 to 142 °C |
| Cc1c(-c2ccccn2)c(N2CC[C@H](N(C)C)C2)c2oc(C3CC3)nc2c1C#N | 150 to 151 °C |

Name the reported melting point value associated with the molecule CON1CCC2(CC1)NC(=O)C(c1c(C)cc(C)cc1C)=C2OCc1ccccc1 184 to 186 °C

Name the reported melting point value associated with the molecule COC(=O)c1cccc2nnsc12 130 to 133 °C

###

Listing of entries alongside the reported melting point.

Answered examples (2):
| Compound | melting point |
| --- | --- |
| CCOc1cc(COc2nn(-c3ccccc3)cc2C=O)ccc1OCc1nc(-c2ccco2)oc1C | 149 to 150 °C |
| CCOC1CC2(C)C(CCC3C4CC=CC4(C)CC(N(C)C)C32)CC1O (stereo not drawn) | 51 to 54 °C |

// switching to the query compound
Name the reported melting point value associated with the compound COc1nc(C)cnc1N(C(=O)OCC(C)C)S(=O)(=O)c1cccnc1-c1ccc(CBr)cc1 125 to 128 °C

###

Attribute Measured: melting point

| Molecule | melting point |
| --- | --- |
| COc1ccc2cc(CCc3ccc(OCC(O)CNC(C)C)c(OC)c3)n(C)c(=O)c2c1 (configuration not stated) | 162 to 164 °C |
| CCCCNc1nc(-c2ccccc2)co1 | 52 to 53 °C |
| Nc1cc2c(cc1Cl)C(=O)C1(CC1)O2 | 201 °C |
| CCOC(=O)c1cn(CC)c2nc(N3CCCC3)ncc2c1=O | 202 °C |
| COc1ccc(C2=NN(c3ccc(S(N)(=O)=O)cc3)C(=O)[C@H]3CC=CC[C@@H]23)cc1OC (relative stereo) | 181 to 183 °C |

Name the reported melting point value associated with the molecule NC(=O)c1ccc(-c2nccc3[nH]c(=O)ccc23)cc1 > 300 °C

Name the reported melting point value associated with the molecule COc1ccc2c(c1)C1=C(SCC3(CCN(CC(O)COc4ccc(Cl)cc4)CC3)O1)C(=O)C2=O (configuration not stated) 109 to 110 °C

Name the reported melting point value associated with the molecule Cc1c(NC(=O)CC(C)(C)C)cc2c(c1C)OC(C)(C)C2(O)c1ccccc1 (configuration not stated) 109 to 111 °C

Name the reported melting point value associated with the molecule CN1C(=O)SC(=C(CO)c2cccc3ccccc23)C1=O 112 to 113 °C

Name the reported melting point value associated with the molecule O=C(O)c1ccc(C(F)(F)F)cc1[N+](=O)[O-] 136 to 138 °C

Name the reported melting point value associated with the molecule CC(=O)NC[C@H]1CN(c2ccc(N3CCC(=C(C#N)n4ccnc4C)CC3)c(F)c2)C(=O)O1 204 to 206 °C

Name the reported melting point value associated with the molecule CCN1CCC2(CC1)CN=C(c1cc3cccc(N(C)S(=O)(=O)c4cccs4)c3[nH]1)S2 215 °C

###

Listing of entries alongside the reported melting point.

| Mol | Attribute Measured | Result |
| --- | --- | --- |
| COc1cc(Cl)c(N=C2NCCN2OCc2ccccc2)c(Cl)c1 | melting point | 90 to 92 °C |

// switching to the query compound
Name the reported melting point value associated with the compound COc1ccc(C(=O)Nc2ccc(C)c(Cl)c2)cc1NC(=S)Nc1cc(Cl)cc(Cl)c1 195 to 196 °C

###

Attribute Measured: melting point

Answered examples (8):
| Compound | melting point |
| --- | --- |
| CC(C)(N)CNC(=O)CNC(=O)CNC(=O)Cc1ccccc1 | 209 to 210 °C |
| CCCCCCOc1ccc2c(ccc3nc(OCCCCCC)ccc32)n1 | 91 °C |
| CC(=O)NCC(C)(C)c1ccc2nc(-c3c[nH]cn3)[nH]c2c1 | 235 to 237 °C |
| COC(=O)CC(=O)NC1CCCCC1 | 77 to 78 °C |
| Cn1ncc(C(=O)c2ccc(S(C)(=O)=O)cc2Cl)c1O | 272 to 275 °C |
| CCN(CC)CCOc1ccc(Nc2nc(N)c(C(=O)c3cccc(OC)c3)s2)cc1 | 118 to 123 °C |
| CN1C(=O)CCC2(C)c3ccc(Sc4nccc5ccccc45)cc3CCC12 (stereo unspecified) | 196 to 199 °C |
| O=C(NCC(=O)N1CCC(=C2c3ccccc3C=Cc3ccccc32)CC1)OCc1ccccc1 | 142 to 144 °C |

Name the reported melting point value associated with the compound CC(=O)c1sc(N2CCN(CCC3CC3)C2=O)nc1C 82 to 83 °C

Name the reported melting point value associated with the compound COC(=O)c1ccc(F)c2c1CC(N(CCCCc1c[nH]c3ccc(F)cc13)C1CCC1)CO2 (stereo unspecified) 115 °C

Name the reported melting point value associated with the compound c1ccc(N2c3ccccc3Sc3ccccc32)cc1 93 to 94 °C

###

Listing of entries alongside the reported melting point.

Name the reported melting point value associated with the molecule O=CN1CCC(c2nn(-c3ccc(C(F)(F)F)cc3)c3ccccc23)CC1 109 to 111 °C

###

Listing of entries alongside the reported melting point.

Answered examples (3):
| Molecule | melting point |
| --- | --- |
| Cc1cccc2ncc(C(=O)NC3CCCCCC3)c(=O)n12 | 172 to 174 °C |
| CCCCCCCCCC(=O)c1cn(CCCC(=O)O)c2ccccc12 | 89 to 90 °C |
| COc1cc2c(c(Cl)c1Cl)C(=O)C(c1ccccc1)(C1CCCC1)C2 (configuration not stated) | 105 to 108 °C |

Name the reported melting point value associated with the molecule CN(C)CC1CCc2cc(OC(=O)c3ccc(-c4ccccc4)cc3)ccc2C1 (configuration not stated) 85 to 86 °C

Name the reported melting point value associated with the molecule COc1c(C)cc2c(c1C)Cc1c-2[nH]c2c(C)cc(C)cc12 210 °C

Name the reported melting point value associated with the molecule CC(O)c1c(-c2ccc(O)cc2)oc2ccc(O)cc12 (configuration not stated) 177 to 182 °C

Name the reported melting point value associated with the molecule CCCc1ccc(CCNC(C)=O)cc1 52 °C

###

Attribute Measured: melting point (°C)
Give a bare numeral; the unit °C is implied.

Answered examples (5):
| Compound | Quantitative Result |
| --- | --- |
| CN(C)Cc1ccc(CSCCNC(=N)N[N+](=O)[O-])s1 | 118 |
| COc1cc(N)c(Cl)cc1C(=O)N[C@H]1CCN(Cc2cccnc2)C[C@H]1OC (relative stereo) | 189 |
| CCCCn1nc(SC2CCC(CC(=O)O)CC2)c(C(=O)O)c1Cc1cc2c(cc1Cl)OCO2 (stereo not given) | 100 |
| CCCCCCCCOc1ccc(-c2cnc(-c3ccc(O)cc3)nc2)cc1 | 137 |
| O=C(c1ccc(OC(F)F)c2oc3ccccc3c12)[NH+]([O-])c1ccncc1 (stereo not given) | 244 |

// switching to the query compound
Name the reported melting point value associated with the compound CNS(=O)(=O)c1csc(C(=O)OC)c1 142

###

Attribute Measured: melting point

Answered examples (2):
| Mol | melting point |
| --- | --- |
| CCOC(=O)Nc1ccc(N(CC)CC)cc1 | 31 to 33 °C |
| CS(=O)(=O)Nc1cc(Cl)c(C#N)cc1Sc1ccc(F)cc1F | 159 to 162 °C |

Name the reported melting point value associated with the compound CCOC(=O)Nc1cc(C(=O)N(C)OC)c(Cl)cc1F 121 °C

Name the reported melting point value associated with the compound CN(C(=O)C(C)(C)NC(=O)OCc1ccccc1)c1ccc([N+](=O)[O-])cc1C(=O)c1ccccc1F 168 to 169 °C

###

Listing of entries alongside the reported melting point.

Answered examples (5):
| Compound | Result |
| --- | --- |
| C1=C(CCC2=Cc3ccccc32)c2ccccc21 | 86 to 87 °C |
| CC(=O)c1ccc(OCCCCl)cc1O | 74 °C |
| CC1(c2ccccc2)OC(=O)COC1=O (configuration not stated) | 90 to 91 °C |
| CC1(C)CN=C2C(=O)c3cc(C#N)ccc3N2C1 | 178 to 184 °C |
| Clc1cccc2c(CN3CC=C(/C=C/c4ccccc4)CC3)n[nH]c12 | 223 to 224 °C |

Name the reported melting point value associated with the compound COc1ccc(-c2coc3cc(OCC(O)CNC4CCCCC4)ccc3c2=O)cc1OC (configuration not stated) 70 to 71 °C

Name the reported melting point value associated with the compound CC(C)n1c(/C=C/C(O)CC(O)CC(=O)OC(C)(C)C)c(-c2ccc(F)cc2)c2ncccc21 (configuration not stated) 62 to 65 °C

Name the reported melting point value associated with the compound O=c1c(OCc2nnn[nH]2)coc2ccccc12 194 to 196 °C

Name the reported melting point value associated with the compound Cc1noc(C)c1-c1nn(C(C)c2oc3ccccc3c(=O)c2-c2cccc(F)c2)c2ncnc(N)c12 (configuration not stated) 218 to 222 °C

Name the reported melting point value associated with the compound COc1cc(CON=C(CCC(=O)O)c2ccccc2)ccc1OCc1nc(-c2ccccc2)oc1C 134 to 135 °C

Name the reported melting point value associated with the compound ClCc1cncc(-c2ccccc2)c1 75 to 76 °C

Name the reported melting point value associated with the compound CC(C)OC(=O)c1cc(O)cc2cc(-c3ccc(O)cc3)oc12 > 250 °C

Name the reported melting point value associated with the compound Cn1cc(C2=C(c3c4n(c5ccccc35)CCC(N=C=S)C4)C(=O)NC2=O)c2ccccc21 (configuration not stated) 285 to 287 °C

Name the reported melting point value associated with the compound CNC(=O)Nc1cc(C(C)(C)C)c2c(c1)C(C)(C)CS2 > 150 °C
